Below, each entry is listed alongside its reported amyloid nucleation score.
Test: amyloid nucleation score (Sup35N fusion, yeast selection) (log enrichment); library NNK1; higher = more nucleation; inactive = no reads after selection;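 further: zero at mode of non-aggregating sequences after 7 days selection at 30°C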

- ordered residues: "MFYSFNDVGWFAFRFSEIGV"
  amyloid nucleation score: -0.539
- ordered residues: "LLYISSTVM"
  amyloid nucleation score: 1.07
- ordered residues: "LGIFSNIYGFV"
  amyloid nucleation score: 0.277
- ordered residues: "FPDYQVLLQCYLN"
  amyloid nucleation score: 0.418
- ordered residues: "PCLLCVYCMFL"
  amyloid nucleation score: 4.53
- ordered residues: "THTYGGDG"
  amyloid nucleation score: -0.096
- ordered residues: "GSFRMVSMLSGISWARVARF"
  amyloid nucleation score: 3.04
- ordered residues: "VNMNELRNNRLSSVVFLVVG"
  amyloid nucleation score: 2.09
- ordered residues: "QISSTRIDW"
  amyloid nucleation score: -0.074

====

Assay: amyloid nucleation score (Sup35N fusion, yeast selection) (log enrichment); library NNK1; higher = more nucleation; inactive = no reads after selection
Binary classification by amyloid nucleation score, with 0.4 as an inclusive lower bound for YES; all other cases are NO.

- substance: "IYKVLYYEVNKFWTTIVSSR"
  category label: "NO"
- substance: "INVPIWGNLQDWLVI"
  category label: "NO"
- substance: "VHFRYNIVTVSPQVIKFFST"
  category label: "YES"
- substance: "EVGRSCWLGSL"
  category label: "NO"
- substance: "MRYVMTFFFHSYKA"
  category label: "NO"
- substance: "YVSYDQTNSAAYYVRVRLRF"
  category label: "YES"
- substance: "ILATMQFLCQMGSERNQARA"
  category label: "YES"
- substance: "LYGPQSPGRSPVSTFGRGRF"
  category label: "NO"
- substance: "ITGGVVWEHS"
  category label: "NO"
- substance: "SRFKPWGGSFVGYCVLYGRL"
  category label: "NO"
- substance: "VSTCAAR"
  category label: "NO"
- substance: "AGFQFSIDYR"
  category label: "NO"
- substance: "GLVGTRICSWIDFRSV"
  category label: "NO"
- substance: "LCEVRDCWVL"
  category label: "YES"
- substance: "TLVCNGQISTNLYYVKVGSS"
  category label: "YES"
- substance: "VPCNYKGSLSGRRYLSAKQS"
  category label: "NO"
- substance: "IHNFIVSRDRMTGENGSGCM"
  category label: "NO"
- substance: "TAGCICPCKQAVYGICQSRT"
  category label: "NO"
- substance: "SQRTWCLLGIGSTITRIHFG"
  category label: "YES"
- substance: "FSPSLVMHSATSLRNVGLSA"
  category label: "NO"
- substance: "LFLCMDTYIYLNLNSGGYSG"
  category label: "YES"
- substance: "FGMSCRVELDSDRARTTPWP"
  category label: "NO"
- substance: "SSLLKWWDIVMKGEVIHGWC"
  category label: "NO"
- substance: "DGSGGPYIGILLWGLAKMSG"
  category label: "NO"
- substance: "ELSLKVFPTARIKRCMFEPM"
  category label: "YES"
- substance: "AGNRTVYWMLTSVSTSG"
  category label: "YES"
- substance: "MSIQCTSALGPL"
  category label: "YES"
- substance: "TDAPHTCWLFFLYSVSFLIV"
  category label: "NO"
- substance: "VDLNSGQSMNLGTYECRSNV"
  category label: "NO"
- substance: "CCHAYRFGWNASVLRCGICL"
  category label: "NO"
- substance: "SRYWSLYGGIIVVSRSRTGR"
  category label: "YES"
- substance: "SIGWYTQGRYVGMCHRN"
  category label: "NO"
- substance: "NGWTFYCSCSWCGI"
  category label: "YES"
